biological target: DNA dC->dU-editing enzyme APOBEC-3G (Homo sapiens) (UniProt Q9HC16); assay: qHTS for inhibitors of Vif-A3G interactions: Cherry picks counterscreen; settings: HeLa A3G-eYFP + Vif, eYFP fluorescence, 24 h;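 also: potency is read from the fitted curve at half-maximal effect; hits raise yellow fluorescence by blocking Vif-driven A3G-eYFP degradation; nearly all actives have a fitted effect of over 70% in size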
Sequence (Q9HC16 whole entry, looked up): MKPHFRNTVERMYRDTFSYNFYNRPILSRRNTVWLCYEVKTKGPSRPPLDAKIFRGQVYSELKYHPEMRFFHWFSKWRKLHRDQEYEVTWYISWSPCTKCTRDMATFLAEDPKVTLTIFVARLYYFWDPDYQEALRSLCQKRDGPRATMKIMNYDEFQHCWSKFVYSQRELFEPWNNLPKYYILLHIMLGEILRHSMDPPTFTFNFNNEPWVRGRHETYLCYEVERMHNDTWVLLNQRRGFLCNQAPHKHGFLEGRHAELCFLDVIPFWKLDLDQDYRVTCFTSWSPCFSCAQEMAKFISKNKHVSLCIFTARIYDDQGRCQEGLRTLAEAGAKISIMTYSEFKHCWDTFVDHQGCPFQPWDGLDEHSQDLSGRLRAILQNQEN
Screen size: about 2,100 compounds; about 1,100 (52%) were called active. Roughly 27% stayed inconclusive and do not appear here. The set was probably picked from earlier hits. This is one part of the list.
Readings of Potency for the listed molecules

Worked cases, answers included:
[
  {
    "MOLECULE": "COc1ccccc1CCC(=O)Nc1ccc2c(c1)c(=O)n(C)n2Cc1ccc(F)cc1",
    "TARGET_SYSTEM": "DNA dC->dU-editing enzyme APOBEC-3G (Homo sapiens) (UniProt Q9HC16)",
    "VALUE_REPORTED": "17.7 µM (active)"
  },
  {
    "MOLECULE": "N#C/C(=C/c1ccc(N2CCOCC2)o1)C(=O)NC1CCCCC1",
    "TARGET_SYSTEM": "DNA dC->dU-editing enzyme APOBEC-3G (Homo sapiens) (UniProt Q9HC16)",
    "VALUE_REPORTED": "16.4 µM (active)"
  },
  {
    "MOLECULE": "COC(=O)/C(=C\\Nc1ccc(Cl)cc1Cl)NC(=O)c1ccc(OC)cc1",
    "TARGET_SYSTEM": "DNA dC->dU-editing enzyme APOBEC-3G (Homo sapiens) (UniProt Q9HC16)",
    "VALUE_REPORTED": "1.98 µM (active)"
  },
  {
    "MOLECULE": "CC(=O)c1cccc(-c2ccnc3c2CC(C(=O)NCc2ccco2)O3)c1 (stereo unspecified)",
    "TARGET_SYSTEM": "DNA dC->dU-editing enzyme APOBEC-3G (Homo sapiens) (UniProt Q9HC16)",
    "VALUE_REPORTED": "1.58 µM (active)"
  },
  {
    "MOLECULE": "NC(=O)c1cccc(-c2ccnc3c2CC(C(=O)NCc2ccco2)O3)c1 (stereo unspecified)",
    "TARGET_SYSTEM": "DNA dC->dU-editing enzyme APOBEC-3G (Homo sapiens) (UniProt Q9HC16)",
    "VALUE_REPORTED": "17.7 µM (active)"
  }
]

Potency of Cc1cc(N)cc(C)c1-c1c(Br)cc(N)cc1Br on DNA dC->dU-editing enzyme APOBEC-3G (Homo sapiens) (UniProt Q9HC16)?
8.86 µM (active)

# iterate: Cc1ccc(/C=N/NC(=O)C2COc3ccccc3O2)s1 (stereo unspecified)
7.9 µM (active)

# iterate: Cc1cc2nc3s/c(=C/c4ccc(-c5ccccc5C(=O)O)o4)c(=O)n3c2cc1C
23.1 µM (active)

# iterate: COc1ccc(-c2n[nH]c3c2CN(C(=O)c2ccc(OC)c(OC)c2)CC3)cc1
9.94 µM (active)

# iterate: O=C(NCc1ccccc1)C1Cc2c(-c3cccc(F)c3)ccnc2O1 (stereo unspecified)
1.4 µM (active)

# iterate: Cc1ccc(-c2cc(C(=O)N/N=C/c3c[nH]c4ccccc34)[nH]n2)cc1
4.98 µM (active)

---

Readings of Potency for the listed compounds
target: DNA dC->dU-editing enzyme APOBEC-3G (Homo sapiens) (UniProt Q9HC16); assay: qHTS for inhibitors of Vif-A3G interactions: Cherry picks counterscreen; conditions: HeLa A3G-eYFP + Vif (tagged APOBEC3G with the HIV-1 protein that degrades it), eYFP fluorescence, 24 h;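 also: potency is read from the fitted curve at half-maximal effect; hits raise yellow fluorescence by blocking Vif-driven A3G-eYFP degradation; nearly all actives have a fitted effect of over 70% in size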
Among all 2,100 compounds or so, about 1,100 (52%) were called active. Not shown: some 27% with an inconclusive outcome. The set was probably picked from earlier hits. This is one part of the list.

Worked cases, answers included:
[
  {
    "COMPOUND": "COc1ccc2nc(N3C(=O)/C(=C/c4ccccc4)NC3=S)sc2c1",
    "VALUE_REPORTED": "11.6 µM (active)"
  },
  {
    "COMPOUND": "CCOC(=O)/C=c1/s/c(=C\\c2c(OC)ccc3ccccc23)c(=O)n1CC(=O)NCC1CCCO1 (centres undefined)",
    "VALUE_REPORTED": "11.2 µM (active)"
  },
  {
    "COMPOUND": "Cc1ccccc1OCC(=O)NNC(=O)Nc1ccc(Cl)cc1",
    "VALUE_REPORTED": "6.27 µM (active)"
  },
  {
    "COMPOUND": "CC(C)n1cc(NC(=O)c2cc(-c3ccccc3)on2)cn1",
    "VALUE_REPORTED": "5.59 µM (active)"
  },
  {
    "COMPOUND": "Cc1c(N=C2N=C(NC(=O)c3cccs3)c3ccccc32)c(=O)n(-c2ccccc2)n1C",
    "VALUE_REPORTED": "12.5 µM (active)"
  },
  {
    "COMPOUND": "Nc1ccccc1C=C1Cc2ccccc2C1=O",
    "VALUE_REPORTED": "7.31 µM (active)"
  }
]

So what's the measured Potency for this one? Cc1ccc(-c2cc(NC=O)c3ncc(-c4cnn(C)c4)n3c2)cc1
3.14 µM (active)

Values from PubChem BioAssay AID651813
